The following compounds are shown together with reported EC50 values.
- Target Under Test: hMC1-R (Homo sapiens, UniProt Q01726)
- Construct: expressed in transfected cells; host or cells: CHO-K1
- Sequence (Q01726 whole entry): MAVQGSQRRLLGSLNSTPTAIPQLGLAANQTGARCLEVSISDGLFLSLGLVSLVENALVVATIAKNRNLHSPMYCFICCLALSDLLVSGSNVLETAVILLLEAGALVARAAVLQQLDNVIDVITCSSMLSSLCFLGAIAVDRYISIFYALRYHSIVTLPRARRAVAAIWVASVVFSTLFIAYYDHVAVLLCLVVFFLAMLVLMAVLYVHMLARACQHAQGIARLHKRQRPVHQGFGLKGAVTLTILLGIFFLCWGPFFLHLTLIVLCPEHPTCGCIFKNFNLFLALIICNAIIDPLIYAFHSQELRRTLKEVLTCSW
- Protocol Details: cyclic AMP bioassay (ECL) in CHO-K1 cells
- Type: cell-based
- Conditions: Table 11; read-out: EC50 hMC1
The reply should contain only the number, in µM.

The following compounds have reported results that may help.
>>> experimental_value("CCCC[C@@H]1NC(=O)N(CC(=O)N[C@H]2CSSC[C@@H](C(N)=O)NC(=O)[C@H](Cc3c[nH]c4ccccc34)NC(=O)[C@H](CCCNC(=N)N)NC(=O)[C@@H](Cc3ccccc3)NC(=O)[C@H](Cc3cnc[nH]3)NC(=O)[C@H](CCC(=O)O)NC2=O)C1=O")
0.0543
>>> experimental_value("N=C(N)NCCC[C@@H]1NC(=O)[C@@H](Cc2ccccc2)NC(=O)[C@H](Cc2cnc[nH]2)NC(=O)[C@H](CCC(=O)O)NC(=O)[C@@H](NC(=O)[C@H](CCCNC(=N)N)N2C(=O)CNC2=O)CSSC[C@@H](C(N)=O)NC(=O)[C@H](Cc2c[nH]c3ccccc23)NC1=O")
0.00997
>>> experimental_value("N=C(N)NCCC[C@@H]1NC(=O)[C@@H](Cc2ccccc2)NC(=O)[C@H](Cc2c[nH]cn2)NC(=O)[C@H](CCC(=O)O)NC(=O)[C@@H](NC(=O)CN2C(=O)N[C@@H](CCCNC(=N)N)C2=O)CSSC[C@@H](C(N)=O)NC(=O)[C@H](Cc2c[nH]c3ccccc23)NC1=O")
0.00883

Please look at the following compound next.
Quick one: EC50 of `N=C(N)NCCC[C@@H]1NC(=O)[C@@H](Cc2ccccc2)NC(=O)[C@H](Cc2cnc[nH]2)NC(=O)[C@H](CCC(=O)O)NC(=O)[C@@H](NC(=O)CN2C(=O)CNC2=O)CSSC[C@@H](C(N)=O)NC(=O)[C@H](Cc2c[nH]c3ccccc23)NC1=O` ?
0.124

---

The following compounds are shown together with reported pEC50 values.
- Target Under Test: hMC1-R (Homo sapiens)
- Construct: expressed in transfected cells; host or cells: CHO-K1
- Protocol Details: cyclic AMP bioassay (ECL) in CHO-K1 cells
- Type: cell-based
- Conditions: Table 9C/9D; read-out: EC50 hMC1-R
Bridge positions count the residues as written; N and C are the ends. Square brackets hold non-standard residues; d marks the D form. Peptide text beside a SMILES is read from it. 1Nal = N[C@@H](Cc1cccc2ccccc12)C(=O)O; d2Nal = N[C@H](Cc1ccc2ccccc2c1)C(=O)O; Nle = CCCC[C@H](N)C(=O)O
Scale: pEC50 equals -log10([C]), with [C] in mol/L.

>>> experimental_value("CCCC[C@H](NC(C)=O)C(=O)N[C@H]1CC(=O)NCCCC[C@@H](C(N)=O)NC(=O)[C@H](C)NC(=O)[C@H](Cc2c[nH]c3ccccc23)NC(=O)[C@H](CCCNC(=N)N)NC(=O)[C@@H](Cc2ccc3ccccc3c2)NC(=O)[C@H](Cc2c[nH]cn2)NC1=O")
9.21

Please look at the following compound next.
Query the reported pEC50 for hMC1-R (Homo sapiens); item: CCCC[C@H](NC(C)=O)C(=O)N[C@H]1CSSC[C@@H](C(N)=O)NC(=O)[C@H](Cc2cccc3ccccc23)NC(=O)[C@H](CCCNC(=N)N)NC(=O)[C@@H](Cc2ccc3ccccc3c2)NC(=O)[C@H](Cc2c[nH]cn2)NC(=O)[C@@H](C)NC1=O (Ac-[Nle]C[dA]H[d2Nal]R[1Nal]C-NH2; disulfide 2-8)
6.42

Hello, the source for this data is patent US20120135923A1, in case you need it.
